Test system: primary human fibroblasts derived from a Complex-I deficient patient
test summary: Protection against oxidative stress-induced (BSO) cell death, Calcein-AM viability
Type: cell-based
setup conditions: 200 μM BSO, two days, Calcein-AM cell viability; formate salt; read-out: EC50 in protecting the cells against oxidative stress-induced cell death
measured parameter: EC50
In your response, put the unit directly after the numeric value.

Looking up CC(C)=CCC/C(C)=C/CC/C(C)=C/CC[C@@](C)(O)CCC1=C(C)C(=O)C(C)=C(C)C1=O [EPI743] , I see its EC50 listed as 35.3 nM
